Test system: sedge, umbrella
ASSAY TEXT: Test C flooded paddy test
Format: in vivo, Cyperus difformis
TEST CONTEXT: Flood; 1000 g ai/ha; scale 0 to 100
// Plant response rating, Sedge, Umbrella lookup, one value per entry

O=C1NC[C@H](c2cccc(C(F)(F)F)c2)[C@H]1C(=O)Nc1ccccc1F [Compound 204]	0
O=C1NCC(c2ccc(F)c(F)c2)C1C(=O)Nc1cccc(F)c1F (racemic) [Compound 101]	0
O=C1NCC(c2cccc(C(F)(F)F)c2)C1C(=O)Nc1ccccc1Br (racemic) [Compound 190]	0

Would you kindly look at the next entry?
Quick one: Plant response rating, Sedge, Umbrella for O=C1NCC(c2ccc(F)c(C(F)(F)F)c2)C1C(=O)Nc1cccc(F)c1F (racemic) [Compound 77] ?
20

This collection of values is drawn from patent US10294202B2.
